# target-desc: fusion glycoprotein of the RSV used in the neutralization assay of Example 1 (respiratory syncytial virus (strain not stated))
# procedure-text: cell-based or functional assay
Please respond with reported RSV Neutralization - IC50 for every item in the list.
Quick note: give the figure in µg/mL, leave out the unit.

Would you mind telling me what RSV Neutralization - IC50 value was observed for MPK142-v2 (antibody, V domains shown) VH: EVQLVESGGGLVEPGGSLRLSCAASGFTISGYGMSWVRQAPGKGLEWVSSISASSSYIYYGDAMKGRITISRDNGWNSMYLQMNSLRTEDTAVYYCATAPIEPPYFDLWGRGTLVTVSS VL: DIQLTQTPTSLSASVGDRVTFTCRASQNIGFYLNWYQQKPGKAPRLLIYGASNLQSGVPSRFSGSGAGTDFSLTISSLQPEDFATYYCQQSFNTPRTFGQGTKVEIN ?
0.162

Which measured RSV Neutralization - IC50 value corresponds to MPK132-v1 (antibody, V domains shown) VH: EVQLVESGGGLVKPGGSLRLSCEASGISLSGYYMIWIRQAPGKGLEWISSISSSSNYIDYADSVKGRFTISRHNGQNTLYLQMNSLRVEDTAVYFCATEQTPSPGPFELWGQGILVTVSS VL: QSVVTQPPSVSGAPGQRVTIFCTGTSSNIGTGYDVHWYQQFPGTSPKLLIYRNTNRPSGVPDRFSGSKSGSSASLAIAGLQAEDEADYYCQSYDRSVSGWVFGGGTKLTVL ?
0.018

Suppose we examine the binder MPK177 (antibody, V domains shown) VH: EVQLVQSGAEVKKPGESLKISCQVSGYSFMNYWVGWVRQMPGKGLEWMGIIYPFDSDTIYSPSFQGHVTISADTSITTAYLHWSSLKASDTATYYCARFTFGIAVVADGLSGDGEAFDIWGQGTVVTVSS VL: DIVMTQTPATLSVSPGERATLSCRASQSVAGKLAWYQQRPGQTPRLLIYGASTRATGVPARFSGSGSETEFTLTISSLQSEDFAVYYCQQYSSWPHAFGQGTRLDIK ; what RSV Neutralization - IC50 value has been reported?
0.001
